Parameter MCC at 96 h: see the listing below.
assay: Cytotoxicity in the plaque reduction assay cultures; assay type: cell-based, African Green Monkey; details: monkey; minimum concentration of test compound which caused cytotoxicity; Vero cells, 4 days; highest concentration tested 100; read-out: MTD
Recorded Endpoint: MCC at 96 h

INSERT INTO measurements (molecule, result) VALUES
  ('O=c1[nH]c(=O)n([C@H]2C[C@H](OC3CCCCO3)[C@@H](CO)O2)cc1/C=C/Br (stereo partly shown)', '> 100 µg/mL'),
  ('O=c1[nH]c(=O)n([C@H]2C[C@H](OC3CCCO3)[C@@H](COC3CCCO3)O2)cc1/C=C/Br (stereo partly shown)', '> 100 µg/mL'),
  ('O=c1[nH]c(=O)n([C@H]2C[C@H](OCOCc3ccccc3)[C@@H](COCOCc3ccccc3)O2)cc1/C=C/Br', '> 100 µg/mL'),
  ('O=c1[nH]c(=O)n([C@H]2C[C@H](O)[C@@H](COC3CCCCO3)O2)cc1/C=C/Br (stereo partly shown)', '> 100 µg/mL'),
  ('CCOC(CCl)OC[C@H]1O[C@@H](n2cc(/C=C/Br)c(=O)[nH]c2=O)C[C@@H]1OC(CCl)OCC (stereo partly shown)', '> 100 µg/mL'),
  ('CCOC(CCl)OC[C@H]1O[C@@H](n2cc(/C=C/Br)c(=O)[nH]c2=O)C[C@@H]1O (stereo partly shown)', '> 100 µg/mL'),
  ('O=c1[nH]c(=O)n([C@H]2C[C@H](OC3CCCO3)[C@@H](CO)O2)cc1/C=C/Br (stereo partly shown)', '> 100 µg/mL');

====

assay: Cytotoxicity in the plaque reduction assay cultures; type: cell-based, African Green Monkey; details: monkey; minimum concentration of test compound which caused cytotoxicity; Vero cells, 4 days; highest concentration tested 100; read-out: MTD
Recorded Endpoint: MCC at 96 h

INSERT INTO measurements (compound, result) VALUES
  ('CCOC(CC)OC[C@H]1O[C@@H](n2cc(/C=C/Br)c(=O)[nH]c2=O)C[C@@H]1O (stereo partly shown) [Example 8]', '> 100 µg/mL'),
  ('CCOC(CCl)O[C@H]1C[C@H](n2cc(/C=C/Br)c(=O)[nH]c2=O)O[C@@H]1CO (stereo partly shown) [Example 20]', '> 100 µg/mL'),
  ('O=c1[nH]c(=O)n([C@H]2C[C@H](OC3CCCCO3)[C@@H](COC3CCCCO3)O2)cc1/C=C/Br (stereo partly shown) [Example 4]', '100 µg/mL'),
  ('O=c1[nH]c(=O)n([C@H]2C[C@H](O)[C@@H](COCOCc3ccccc3)O2)cc1/C=C/Br [Example 12]', '> 100 µg/mL');
